Quick reference: Potency of the listed items.
- subject of test: Glucocorticoid receptor (Homo sapiens)
- assay info: GR-GFP Redistribution (AID 450); also: potency is read from the fitted curve at half-maximal effect
- condition description: U2OS GR-GFP nuclear translocation, laser cytometry, 2 h
Activity calls are given as the source filed them.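 The calls were made as follows: active = compounds whose dose series gives a full or clear partial fitted curve of increased nuclear translocation; inconclusive = weak partial curve or effect only at the top dose; inactive = no dose-dependent translocation response.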

# count of solved cases: 4
compound=O=c1c(C=NCCN2CCNCC2)c(O)n(C2CCCCC2)c(=O)n1C1CCCCC1 subject_of_test="Glucocorticoid receptor (Homo sapiens)" result="> 20.6 µM (inactive)"
compound=CCOC(=O)c1cc(C)n(CCc2cnc[nH]2)c1C subject_of_test="Glucocorticoid receptor (Homo sapiens)" result="> 20.6 µM (inactive)"
compound="C[C@H]1CCC/C=C/C2C[C@H](O)CC2[C@H](O)/C=C/C(=O)O1 (stereo not given in full)" subject_of_test="Glucocorticoid receptor (Homo sapiens)" result="> 20.6 µM (inactive)"
compound="CCCCNC(=O)Nc1ccc(C(O)(C(=O)OCC)C(F)(F)F)cc1 (stereo not given)" subject_of_test="Glucocorticoid receptor (Homo sapiens)" result="> 20.6 µM (inactive)"

Consider the record given below.
stdin: Jot down Potency (Glucocorticoid receptor (Homo sapiens)) of CCN(CC)CCN=C(C)c1c(O)n(-c2ccccc2OC)c(=O)[nH]c1=O .
stdout: > 20.6 µM (inactive)

----------
- assay info: MultiTox-Fluor Cytotoxicity Assay - LYMP1-001 - Live Cells (AID 947)
- condition description: LYMP1-001 lymphoblastoid cells, live-cell protease fluorescence viability; series mostly up to 92.2 µM
Records with an inconclusive call do not appear. The source made the active and inactive calls. The call rests on the fitted dose curve; in most records, active means well fitted cell-killing curve with a large enough effect; inconclusive means small, poorly fitted or top-dose-only effect; inactive means flat fitted curve, though single readings scatter.
Your answer must be one of the following: active, inactive

Record excerpt, results attached:
molecule=CCCCCCCCn1sccc1=O group=active
molecule=FC(F)(F)c1ccc(Cl)cc1 group=inactive
molecule="CN1[C@H]2CC(OC(=O)[C@H](CO)c3ccccc3)C[C@H]1[C@H]1O[C@H]12 (some centres undefined)" group=inactive

Okay, next one:
stdin: Hi team, can someone confirm the assay call for O=C(O)C1C(C(=O)O)C2(Cl)C(Cl)=C(Cl)C1(Cl)C2(Cl)Cl (centres undefined) ?
stdout: inactive

----------
- assay info: qHTS assay for cell viability of HEK293 cells (AID 743288); also: % is scaled to controls: 0 for no effect and ±100 for the full control effect; nearly all actives have a fitted effect of over 50% in size
- condition description: ATP luminescence (CellTiter-Glo), 18 h; hits give low values
Inconclusive results are not listed.
List of max response values.
Response body: numeric value in %, unit text excluded.

compound=CC(C)(C)N(NC(=O)c1ccc(Cl)cc1)C(=O)c1ccccc1 measured_number=-8.37
compound=CCOP(=O)(OCC)Oc1nc(Cl)c(Cl)cc1Cl measured_number=-13.2

stdin: Indicate the recorded max response value for this compound: CS/C(C)=N/OC(=O)N(C)SN(C)C(=O)O/N=C(\C)SC
stdout: -6.07

stdin: Annotate the compound CCc1cnc(C2=NC(C)(C(C)C)C(=O)N2)c(C(=O)O)c1 (configuration not stated) with its measured max response.
stdout: 4.64

stdin: Using known records, supply max response for O=[N+]([O-])Nc1nccn1Cc1ccc(Cl)nc1
stdout: -8

stdin: For the compound CNC(=O)Oc1ccc(N(C)C)c(C)c1 , give its reported max response.
stdout: -1.07

stdin: Using known records, supply max response for CCOP(N)(=O)Oc1ccc(SC)c(C)c1 (configuration not stated)
stdout: -8.45

----------
- assay info: Cell Viability - LYMP2-013 (AID 970);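 also: cells exposed to compound for 24 h at 37 °C; nearly all actives have a fitted effect of over 55% in size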
- condition description: LYMP2-013 lymphoblastoid cells viability; series mostly up to 92.2 µM
Inconclusive results are not listed. Activity calls are given as the source filed them. Calls come from the whole dose curve; as a rule, active = well fitted cell-killing curve with a large enough effect; inconclusive = small, poorly fitted or top-dose-only effect; inactive = flat fitted curve, though single readings scatter.
Response enum: True = active, False = inactive

These solved cases illustrate the format of a correct answer.
compound=FC(F)(F)c1ccc(Cl)cc1 group=False
compound=C#CCO group=False
compound=Nc1ccccc1C(=O)OCCc1ccccc1 group=False

Alright, here's another compound for you.
stdin: Assay outcome for CC(C)CC(C)Nc1ccc(Nc2ccccc2)cc1 (centres undefined) : what was it?
stdout: True

Just for reference, PubChem BioAssay (NCATS) is where these values come from.
